B1: POU domain, class 4, transcription factor 1, residues 266 to 347; numbered along this chain, Q01851 (parent)
chain: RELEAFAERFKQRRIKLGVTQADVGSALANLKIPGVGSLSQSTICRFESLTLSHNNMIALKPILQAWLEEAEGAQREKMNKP

Variants of: B1
protocol.description: abundance fitness (aPCA) (normalised: wild type 0, dead -1); higher = more abundant; growth selection in yeast, the domain comes from the species named
setup.conditions: Homo sapiens
Threshold rule: abundance fitness greater than or equal to -0.2 is T; below that, F.

variant.identifier | assigned.label
A22T | T
G37T | T
C45E | T
I44E | F
A7P | F
T51V | T
Q65T | T
A29R | T
I33D | F
E77P | T
C45A | T
T43Q | T
N80R | T
K11N | F
R76W | T
R9C | T
Q65Y | T
K78T | F
R76D | T
I15H | T
Q12M | T
L52C | F
E72D | F
L17F | F
P34H | T
I44V | T
A7H | F
S40F | F
P34A | T
Q12H | T
D23G | T
E4Y | T
A59Y | T
Q21W | T
A74Y | T
E48Y | F
V24S | F
S49Q | T
E77F | T
D23V | T
S26M | T
G18R | F
A71I | T
A27K | T
L50R | T
R9K | T
L3V | T
T43K | F
E72G | F
G37F | T
S40D | T
L31H | T
S42H | T
L17R | F
I33L | T
G73L | T
N30H | T
F6D | F
E4G | T
T43D | T
K32A | T
N30V | F
E8S | T
I63C | T
G18C | F
R1T | T
G35T | T
E77M | T
V36I | T
K32Y | F
A7T | T
E2L | F
S26Y | T
A5D | T
N55D | T
R46M | T
M79V | T
S40C | T
L60N | F
A7Y | F
R14M | F
N55V | T
E2Y | F
Q65I | T
W67Q | F
K81V | T
S49A | T
E4K | T
E2K | T
K81M | T
